Reported EC50 values for the following compounds.
# Test system: virus strain F (R13025)
# measurementProtocol: microbe, parasite or virus in culture
# Format: cell-based, HIV
# statedConditions: Human immunodeficiency virus 1, MT4, read-out: HIV-AVE-MT4-MTT-R13025-2-002 pEC50, virus strain F (R13025), MT4 cells, MTT (converted)
reportedEndpoint: EC50 (nM)

>  <compound>
Cc1cccc(C)c1OCC(=O)N[C@@H](Cc1ccccc1)[C@H](O)CN(CC(C)C)S(=O)(=O)c1ccc2nc(NC(=O)C3CCCN(C)C3)sc2c1 (stereo partly drawn)

>  <reportedEndpoint>
EC50

>  <observedValue>
19.1

$$$$
>  <compound>
CC(C)CN(C[C@@H](O)[C@H](Cc1ccccc1)NC(=O)OCc1cncs1)S(=O)(=O)c1ccc2nc(N3CCN(C)C3=O)sc2c1

>  <reportedEndpoint>
EC50

>  <observedValue>
813

$$$$
>  <compound>
CC(C)CN(C[C@@H](O)[C@H](Cc1ccccc1)NC(=O)OCc1cncs1)S(=O)(=O)c1ccc2nc(N(C)C(=O)c3ccc[nH]3)sc2c1

>  <reportedEndpoint>
EC50

>  <observedValue>
891

$$$$
>  <compound>
CC(C)CN(C[C@@H](O)[C@H](Cc1ccccc1)NC(=O)OCc1cncs1)S(=O)(=O)c1ccc2nc(NC(=O)c3ccncc3)sc2c1

>  <reportedEndpoint>
EC50

>  <observedValue>
31.6

$$$$
>  <compound>
CC(C)CN(C[C@@H](O)[C@H](Cc1ccccc1)NC(=O)OCc1cncs1)S(=O)(=O)c1ccc2nc(NC(=O)CN3CCNCC3)sc2c1

>  <reportedEndpoint>
EC50

>  <observedValue>
24.5

$$$$
>  <compound>
CC(C)CN(C[C@@H](O)[C@H](Cc1ccccc1)NC(=O)OCc1cncs1)S(=O)(=O)c1ccc2nc(N(C)C(=O)c3ccccn3)sc2c1

>  <reportedEndpoint>
EC50

>  <observedValue>
38

$$$$

###

Reported fold resistance (FR), strain D values for the following compounds.
# Test system: clinically isolated HIV strain D
# measurementProtocol: Antiviral spectrum, cellular assay (fold resistance), strain D
# Type: cell-based
# statedConditions: FR=EC50(mutant strain)/EC50(HIV-1 strain LAI)
# Protocol: HIV- or mock-infected MT4 cells were incubated for five days in the presence of various concentrations of the inhibitor. […] Cell viability is measured by measuring the concentration of MTT, a yellow, water soluble tetrazolium dye that is converted to a purple, water insoluble formazan in the mitochondria of living cells only. Upon solubilization of the resulting formazan crystals with isopropanol, the absorbance of the solution is monitored at 540 nm. […]
reportedEndpoint: fold resistance (FR), strain D

>  <compound>
CC(C)CN(CC(O)C(Cc1ccccc1)NC(=O)OC1COC2OCCC12)S(=O)(=O)c1ccc2nc(NC(=O)CN3CCOCC3)sc2c1 (mixture of isomers) [Compound 10]

>  <observedValue>
0.5

$$$$
>  <compound>
CC(C)CN(CC(O)C(Cc1ccccc1)NC(=O)OC1COC2OCCC12)S(=O)(=O)c1ccc2nc(NC(=O)CN(C)C)sc2c1 (mixture of isomers) [Compound 3]

>  <observedValue>
0.8

$$$$
>  <compound>
CC(C)CN(C[C@@H](O)[C@H](Cc1ccccc1)NC(=O)O[C@H]1CCOC1)S(=O)(=O)c1ccc2nc(NC(=O)CN(C)C)sc2c1 [Compound 34]

>  <observedValue>
6.6

$$$$

###

# System: clinically isolated HIV strain H
# Assay type: cell-based
# statedConditions: FR=EC50(mutant strain)/EC50(HIV-1 strain LAI)

>  <compound>
CC(C)CN(C[C@@H](O)[C@H](Cc1ccccc1)NC(=O)O[C@H]1CO[C@H]2OCC[C@H]21)S(=O)(=O)c1ccc2nc(N3CCN(C)C(=O)C3)sc2c1

>  <fold resistance (FR), strain H>
4.7

$$$$
>  <compound>
CC(C)CN(CC(O)C(Cc1ccccc1)NC(=O)OC1COC2OCCC12)S(=O)(=O)c1ccc2nc(NC(=O)CN3CCOCC3)sc2c1 (mixture of isomers)

>  <fold resistance (FR), strain H>
0.4

$$$$
>  <compound>
CC(=O)Nc1nc2ccc(S(=O)(=O)N(CC(C)C)C[C@@H](O)[C@H](Cc3ccccc3)NC(=O)Cc3cc(C)no3)cc2s1

>  <fold resistance (FR), strain H>
11.7

$$$$

###

# Test system: virus strain F (R13025)
# measurementProtocol: microbe, parasite or virus in culture
# Assay type: cell-based, HIV
# statedConditions: Human immunodeficiency virus 1, MT4, read-out: HIV-AVE-MT4-MTT-R13025-2-002 pEC50, virus strain F (R13025), MT4 cells, MTT (converted)
# Procedure: HIV- or mock-infected MT4 cells were incubated for five days in the presence of various concentrations of the inhibitor. […] Cell viability is measured by measuring the concentration of MTT, a yellow, water soluble tetrazolium dye that is converted to a purple, water insoluble formazan in the mitochondria of living cells only. Upon solubilization of the resulting formazan crystals with isopropanol, the absorbance of the solution is monitored at 540 nm. […]
reportedEndpoint: EC50

>  <compound>
CC(C)CN(C[C@@H](O)[C@H](Cc1ccccc1)NC(=O)O[C@H]1CO[C@H]2OCC[C@H]21)S(=O)(=O)c1ccc2nc(N3CCNC3=O)sc2c1

>  <observedValue>
55 nM

$$$$
>  <compound>
Cc1cccc(C)c1OCC(=O)N[C@@H](Cc1ccccc1)[C@H](O)CN(CC(C)C)S(=O)(=O)c1ccc2nc(N3CCCC3C(=O)O)sc2c1 (stereo partly shown)

>  <observedValue>
3090 nM

$$$$
>  <compound>
CC(C)CN(C[C@@H](O)[C@H](Cc1ccccc1)NC(=O)OCc1cncs1)S(=O)(=O)c1ccc2nc(NC(=O)c3ccno3)sc2c1

>  <observedValue>
245 nM

$$$$
>  <compound>
CC(C)COC(=O)Nc1nc2ccc(S(=O)(=O)N(CC(C)C)C[C@@H](O)[C@H](Cc3ccccc3)NC(=O)OCc3cncs3)cc2s1

>  <observedValue>
186 nM

$$$$

###

# Tested on: virus strain S (R13080)
# measurementProtocol: microbe, parasite or virus in culture
# Type: cell-based, HIV
# statedConditions: FR=EC50(mutant strain)/EC50(HIV-1 strain LAI); strain S
reportedEndpoint: fold resistance (FR), strain S

>  <compound>
CC(C)CN(C[C@@H](O)[C@H](Cc1ccccc1)NC(=O)OCc1cccnc1)S(=O)(=O)c1ccc2nc(NCCCN(C)C)sc2c1 [Compound 52]

>  <measuredTarget>
virus strain S (R13080)

>  <reportedEndpoint>
fold resistance (FR), strain S

>  <observedValue>
20.3

$$$$
>  <compound>
CC(=O)Nc1nc2ccc(S(=O)(=O)N(CC(C)C)CC(O)C(Cc3ccccc3)NC(=O)OC3COC4OCCC34)cc2s1 (mixture of isomers) [Compound 1]

>  <measuredTarget>
virus strain S (R13080)

>  <reportedEndpoint>
fold resistance (FR), strain S

>  <observedValue>
1.0

$$$$
>  <compound>
CC(C)CN(C[C@@H](O)[C@H](Cc1ccccc1)NC=O)S(=O)(=O)c1ccc2nc(NC(=O)CN3CCCC3)sc2c1 [Compound 55]

>  <measuredTarget>
virus strain S (R13080)

>  <reportedEndpoint>
fold resistance (FR), strain S

>  <observedValue>
26.2

$$$$
>  <compound>
CC(C)CN(C[C@@H](O)[C@H](Cc1ccccc1)NC(=O)OCc1cccnc1)S(=O)(=O)c1ccc2nc(NC(=O)CN3CCCC3)sc2c1 [Compound 61]

>  <measuredTarget>
virus strain S (R13080)

>  <reportedEndpoint>
fold resistance (FR), strain S

>  <observedValue>
80.0

$$$$
>  <compound>
Cc1cc(Br)ccc1C(=O)N[C@@H](Cc1ccccc1)[C@H](O)CN(CC(C)C)S(=O)(=O)c1ccc2nc(NC(=O)CN3CCCC3)sc2c1 [Compound 70]

>  <measuredTarget>
virus strain S (R13080)

>  <reportedEndpoint>
fold resistance (FR), strain S

>  <observedValue>
10.4

$$$$
>  <compound>
CC(=O)N(C)c1nc2ccc(S(=O)(=O)N(CC(C)C)C[C@@H](O)[C@H](Cc3ccccc3)NC(=O)COc3c(C)cccc3C)cc2s1 [Compound 77]

>  <measuredTarget>
virus strain S (R13080)

>  <reportedEndpoint>
fold resistance (FR), strain S

>  <observedValue>
11.6

$$$$
>  <compound>
CNCCNc1nc2ccc(S(=O)(=O)N(CC(C)C)C[C@@H](O)[C@H](Cc3ccccc3)NC(=O)O[C@H]3CO[C@H]4OCC[C@H]43)cc2s1 [Compound 23]

>  <measuredTarget>
virus strain S (R13080)

>  <reportedEndpoint>
fold resistance (FR), strain S

>  <observedValue>
1.1

$$$$
>  <compound>
Cc1c(N)cccc1C(=O)N[C@@H](Cc1ccccc1)[C@H](O)CN(CC(C)C)S(=O)(=O)c1ccc2nc(NCCCN(C)C)sc2c1 [Compound 54]

>  <measuredTarget>
virus strain S (R13080)

>  <reportedEndpoint>
fold resistance (FR), strain S

>  <observedValue>
1.8

$$$$
>  <compound>
CC(=O)N(CCN1CCCC1)c1nc2ccc(S(=O)(=O)N(CC(C)C)C[C@@H](O)[C@H](Cc3ccccc3)NC(=O)COc3c(C)cccc3C)cc2s1 [Compound 78]

>  <measuredTarget>
virus strain S (R13080)

>  <reportedEndpoint>
fold resistance (FR), strain S

>  <observedValue>
12.1

$$$$
>  <compound>
CC(C)CN(C[C@@H](O)[C@H](Cc1ccccc1)NC(=O)O[C@H]1CO[C@H]2OCC[C@H]21)S(=O)(=O)c1ccc2nc(NC(=O)CN3CCCC3)sc2c1.O=C(O)C(=O)O [Compound 15]

>  <measuredTarget>
virus strain S (R13080)

>  <reportedEndpoint>
fold resistance (FR), strain S

>  <observedValue>
0.8

$$$$
>  <compound>
Cc1cccc(C)c1OCC(=O)N[C@@H](Cc1ccccc1)[C@H](O)CN(CC(C)C)S(=O)(=O)c1ccc2nc(NCCN3CCCC3)sc2c1 [Compound 46]

>  <measuredTarget>
virus strain S (R13080)

>  <reportedEndpoint>
fold resistance (FR), strain S

>  <observedValue>
7.1

$$$$
>  <compound>
CC(=O)N(CCN1CCCC1)c1nc2ccc(S(=O)(=O)N(CC(C)C)CC(O)C(Cc3ccccc3)NC(=O)OC3COC4OCCC34)cc2s1 (stereo not drawn) [Compound 19]

>  <measuredTarget>
virus strain S (R13080)

>  <reportedEndpoint>
fold resistance (FR), strain S

>  <observedValue>
2.2

$$$$
